- Tested on: MDA-MB-468 breast
- MEASUREMENT PROTOCOL: NCI-60 one-dose screen, 48 h (100 = growth as untreated, 0 = no growth, -100 = all killed)
- CONDITION CONTEXT: 10 µM unless noted
- Experimental: Growth inhibition of the MDA-MB-468 human Breast tumor cell line is measured as a screen for anti-cancer activity. Cells are grown in 96 well plates and exposed to the test compound for 48 hours. Compounds are tested at a single concentration, which is 10^-5 M for most compounds. The reported endpoint is percent growth (GI% or GIPRCNT), where numbers from 0 - 100% represent growth inhibition, and numbers from -100% - 0 represent cell death. […]
About 83,000 compounds went through this panel and 20% of them were active in at least one assay; those are over-represented in the sample as a whole.
Label Condition met when growth is at or above 70%; anything below gets Condition not met.

Please review the entries below; each comes with its answer.
COMPOUND: O=C(NNc1nc2cc(F)ccc2n2c(CN3CCOCC3)ccc12)c1ccccc1
SYSTEM UNDER TEST: MDA-MB-468 breast
ASSIGNED CATEGORY: Condition not met

COMPOUND: O=C1CC(=O)OC(c2ccc([N+](=O)[O-])cc2)O1
SYSTEM UNDER TEST: MDA-MB-468 breast
ASSIGNED CATEGORY: Condition not met

COMPOUND: Cc1cc(-c2cc(C)c(N)cc2C)c(C)cc1N
SYSTEM UNDER TEST: MDA-MB-468 breast
ASSIGNED CATEGORY: Condition not met

COMPOUND: O=C1c2c(c3c4cc(Br)ccc4[nH]c3c3ccc4ccccc4c23)C(=O)N1CCN1CCNCC1
SYSTEM UNDER TEST: MDA-MB-468 breast
ASSIGNED CATEGORY: Condition met

COMPOUND: CCOC(=O)c1nn(CC(O)c2ccccc2)c(NC(=O)Nc2cccc(F)c2)c1C (stereo unspecified)
SYSTEM UNDER TEST: MDA-MB-468 breast
ASSIGNED CATEGORY: Condition met

Hi team, for O=C(O)c1cccc2oc(-c3ccccc3O)nc12 , is the recorded growth at or above 70%? Condition not met

# repeat for CN1CCN(Cc2ccc(NC(=O)c3cncc(C#Cc4cnccc4C#N)c3)cc2C(F)(F)F)CC1 Condition met

# repeat for COC(=O)CCCCCCCCC1(C)C=CC(C(C)O)=CC1 (stereo unspecified) Condition met

# repeat for O=C(Nc1ccc(C2=NCCCN2)cc1)Nc1ccc(C2=NCCCN2)cc1 Condition not met

# repeat for O=S(=O)(NCCNc1cc(-c2cn(-c3ccccc3)nc2-c2cccc(O)c2)ccn1)c1ccc(F)cc1 Condition not met

# repeat for COc1cc(/C=C\c2cc(/C=C\c3ccc(O)c(OC)c3)n(C(=O)COc3ccc(Cl)cc3Cl)n2)ccc1O Condition not met

# repeat for Oc1ccc(-c2nnc(SCc3ccc(O)c4ncccc34)o2)cc1 Condition not met

# repeat for CCn1c(=O)c(C(=O)NCCCO)c(O)c2ccccc21 Condition met

# repeat for CCOc1cccc(/C=N/NC(=O)c2ccccc2Nc2ccnc(C(F)(F)F)c2)c1O Condition not met

====

- Tested on: MDA-MB-468 breast
- MEASUREMENT PROTOCOL: NCI-60 one-dose screen, 48 h (100 = growth as untreated, 0 = no growth, -100 = all killed)
- CONDITION CONTEXT: 10 µM unless noted
Compounds without any hit were thinned out: in the full panel of roughly 83,000, 20% have a hit.
Label Met when growth is at or above -10%; anything below gets Not met.

Please review the entries below; each comes with its answer.
COMPOUND: CCCCCOc1ccc(/C=N/Nc2cc(C)nc3ccc(Cl)cc23)cc1
SYSTEM UNDER TEST: MDA-MB-468 breast
ASSIGNED CATEGORY: Not met
//
COMPOUND: CC1(C)CC(O)CCCCCCOc2c(CN)cccc2NC(=O)c2nc(cnc2N)-c2ccc(cc2)S1(=O)=O (centres undefined)
SYSTEM UNDER TEST: MDA-MB-468 breast
ASSIGNED CATEGORY: Met
//
COMPOUND: O=C1C(Cl)=C(Nc2ccc(S(=O)(=O)c3ccc(NC4=C(Cl)C(=O)c5ccccc5C4=O)cc3)cc2)C(=O)c2ccccc21
SYSTEM UNDER TEST: MDA-MB-468 breast
ASSIGNED CATEGORY: Not met
//
COMPOUND: CC1(C)CC[C@]2(CO)CC[C@]3(C)C(=CC[C@@H]4[C@@]5(C)CC[C@H](NCO)C(C)(C)[C@@H]5CC[C@]43C)[C@@H]2C1
SYSTEM UNDER TEST: MDA-MB-468 breast
ASSIGNED CATEGORY: Not met
//
COMPOUND: CC(C)(C)c1ccc(C(=O)Nc2nc3ccc(O)cc3s2)cc1
SYSTEM UNDER TEST: MDA-MB-468 breast
ASSIGNED CATEGORY: Met
//
COMPOUND: CCOC(=O)c1sc(NCC(=O)Nc2cccc([N+](=O)[O-])c2)c(C(=O)OCC)c1C
SYSTEM UNDER TEST: MDA-MB-468 breast
ASSIGNED CATEGORY: Not met
//
COMPOUND: Cc1ccc(O)c(NC(=O)c2ccc(CNc3ccnc(C(F)(F)F)c3)cc2)c1
SYSTEM UNDER TEST: MDA-MB-468 breast
ASSIGNED CATEGORY: Met
//
COMPOUND: O=C(CCN1CCCC1)Nc1ccc2c(NCCCCc3ccccc3)c3ccccc3nc2c1
SYSTEM UNDER TEST: MDA-MB-468 breast
ASSIGNED CATEGORY: Not met

Then there is this compound:
Hi team, for O=C(/C=C/c1cccs1)Nc1ncc(Cc2ccccc2F)s1 , is the recorded growth at or above -10%? Not met

====

- System: SN12C renal
- MEASUREMENT PROTOCOL: NCI-60 one-dose screen, 48 h (100 = growth as untreated, 0 = no growth, -100 = all killed)
- CONDITION CONTEXT: 10 µM
This is part of a sample that, as a whole, favours compounds with a hit. Of some 83,000 tested, about 20% had one in any assay. The source made the active and inactive calls. How the source made its calls: active means growth percent below 10; inactive means the rest.
PROPERTY MEASURED: growth

COMPOUND: COc1cc2oc(-c3cccc(C(=O)Nc4ccc(Cl)cc4)c3)cc(=O)c2c(OCCN)c1OC
READOUT VALUE: -91.1% (active)
//
COMPOUND: CC1[C@H]2[C@H](C[C@H]3[C@@H]4CC=C5c6sc(Nc7cccc(Cl)n7)nc6CC[C@]5(C)[C@H]4CC[C@@]32C)O[C@]12CC[C@@H](C)CO2 (stereo partly drawn)
READOUT VALUE: 94.5% (inactive)
//
COMPOUND: O=C(CN1CCN(c2ncnc3c2cnn3-c2ccccc2)CC1)Nc1ccc(Br)cc1
READOUT VALUE: 39.1% (inactive)
//
COMPOUND: COC(=O)CNC(=O)COc1c(OC)c(OC)cc2oc(-c3cccc(C(=O)Nc4ccc(Cl)cc4)c3)cc(=O)c12
READOUT VALUE: 41% (inactive)
//
COMPOUND: Cc1ccc(-c2nc(C#N)c(S(=O)(=O)N3CCN(S(C)(=O)=O)CC3)o2)cc1
READOUT VALUE: 78.1% (inactive)

Now look at this entry.
Endpoint output: growth of CCn1c(SCC(=O)Nc2ccc(-c3nc4ccccc4[nH]3)cc2)nc2ccccc2c1=O . Value? -77.7% (active)

====

- Tested on: MDA-MB-468 breast
- MEASUREMENT PROTOCOL: NCI-60 one-dose screen, 48 h
- CONDITION CONTEXT: 10 µM unless noted
The panel holds about 83,000 compounds, 20% with a hit somewhere; the sample as a whole holds those more often. Calls of active or inactive are those of the source. How the source made its calls: active means growth percent below 10; inactive means the rest.
Just give me one of these, please: 1 = active, 0 = inactive

Please review the entries below; each comes with its answer.
MOLECULE: O=C1C(Cl)=C(Cl)C(=O)c2c1nc1n2CCCC1
SYSTEM UNDER TEST: MDA-MB-468 breast
ASSIGNED CATEGORY: 0
--
MOLECULE: O=C1CCc2c(sc3[nH]c(=S)n(Cc4ccccc4)c(=O)c23)C1
SYSTEM UNDER TEST: MDA-MB-468 breast
ASSIGNED CATEGORY: 1
--
MOLECULE: COc1ccc(CNCCN2C(=O)c3ccc4c5c(ccc(c35)C2=O)C(=O)N(CCNCc2ccc(OC)c(OC)c2OC)C4=O)c(OC)c1OC
SYSTEM UNDER TEST: MDA-MB-468 breast
ASSIGNED CATEGORY: 1

Then there is this molecule:
Can you look up the reported call for Nc1ccc2c(c1)C(=O)NC2=O for me? 0

====

- Tested on: SW-620 colon
- MEASUREMENT PROTOCOL: NCI-60 one-dose screen, 48 h (100 = growth as untreated, 0 = no growth, -100 = all killed)
- CONDITION CONTEXT: 10 µM
Compounds without any hit were thinned out: in the full panel of roughly 83,000, 20% have a hit.
PROPERTY MEASURED: growth (%)
Please give a number only; it is taken to be in %.

MOLECULE: CCOc1ccc(/C=N/NC(=O)Cn2nc(Cc3ccc(OC)cc3)c3onc(C)c3c2=O)cc1
SYSTEM UNDER TEST: SW-620 colon
growth [%]: 23

MOLECULE: COc1ccc(C2OC[C@@]3(C)C4CC[C@]5(C)C(CC=C6C7CC(C)(C)CC[C@]7(C(=O)O)CC[C@]65C)[C@@]4(C)C[C@@H](O)[C@@H]3O2)cc1 (stereo partly drawn)
SYSTEM UNDER TEST: SW-620 colon
growth [%]: 69.9

Endpoint output: growth of CCn1c(SCC(=O)Nc2ccc(-c3nc4ccccc4[nH]3)cc2)nc2ccccc2c1=O . Value? -35.5

# repeat for COc1cc2oc(-c3cccc(C(=O)Nc4ccc(Cl)cc4)c3)cc(=O)c2c(OCCNC(=O)[C@@H](N)CO)c1OC -37.7

# repeat for COc1ccc(OC)c(-n2cc(C#N)c(N)c2C(=O)c2ccc(Cl)cc2Cl)c1 26.8

# repeat for O=C(CSc1nc2ccccc2c(=O)n1-c1ccc(Cl)cc1)Nc1ccc(-c2nc3ccc([N+](=O)[O-])cc3[nH]2)cc1 64.2

# repeat for COc1ccc(C(=O)COc2ccc(NC(=O)Nc3ccc(Cl)c(C(F)(F)F)c3)cc2)cc1 54.6

# repeat for O=C(CN1CCN(c2ncnc3c2cnn3-c2ccccc2)CC1)Nc1ccc(Cl)cc1 78.4

FYI, the data here is from PubChem BioAssay (NCI).
